Target: F508delCFTR (Homo sapiens, UniProt P13569, DEL508-508)
Construct: expressed in transfected cells; host or cells: CFBE41o- human lung-derived epithelial cells (CFBE4lo-F508delCFTR-HRP), doxycycline-inducible
Sequence (P13569 with tags, fused parts or gaps DEL508-508): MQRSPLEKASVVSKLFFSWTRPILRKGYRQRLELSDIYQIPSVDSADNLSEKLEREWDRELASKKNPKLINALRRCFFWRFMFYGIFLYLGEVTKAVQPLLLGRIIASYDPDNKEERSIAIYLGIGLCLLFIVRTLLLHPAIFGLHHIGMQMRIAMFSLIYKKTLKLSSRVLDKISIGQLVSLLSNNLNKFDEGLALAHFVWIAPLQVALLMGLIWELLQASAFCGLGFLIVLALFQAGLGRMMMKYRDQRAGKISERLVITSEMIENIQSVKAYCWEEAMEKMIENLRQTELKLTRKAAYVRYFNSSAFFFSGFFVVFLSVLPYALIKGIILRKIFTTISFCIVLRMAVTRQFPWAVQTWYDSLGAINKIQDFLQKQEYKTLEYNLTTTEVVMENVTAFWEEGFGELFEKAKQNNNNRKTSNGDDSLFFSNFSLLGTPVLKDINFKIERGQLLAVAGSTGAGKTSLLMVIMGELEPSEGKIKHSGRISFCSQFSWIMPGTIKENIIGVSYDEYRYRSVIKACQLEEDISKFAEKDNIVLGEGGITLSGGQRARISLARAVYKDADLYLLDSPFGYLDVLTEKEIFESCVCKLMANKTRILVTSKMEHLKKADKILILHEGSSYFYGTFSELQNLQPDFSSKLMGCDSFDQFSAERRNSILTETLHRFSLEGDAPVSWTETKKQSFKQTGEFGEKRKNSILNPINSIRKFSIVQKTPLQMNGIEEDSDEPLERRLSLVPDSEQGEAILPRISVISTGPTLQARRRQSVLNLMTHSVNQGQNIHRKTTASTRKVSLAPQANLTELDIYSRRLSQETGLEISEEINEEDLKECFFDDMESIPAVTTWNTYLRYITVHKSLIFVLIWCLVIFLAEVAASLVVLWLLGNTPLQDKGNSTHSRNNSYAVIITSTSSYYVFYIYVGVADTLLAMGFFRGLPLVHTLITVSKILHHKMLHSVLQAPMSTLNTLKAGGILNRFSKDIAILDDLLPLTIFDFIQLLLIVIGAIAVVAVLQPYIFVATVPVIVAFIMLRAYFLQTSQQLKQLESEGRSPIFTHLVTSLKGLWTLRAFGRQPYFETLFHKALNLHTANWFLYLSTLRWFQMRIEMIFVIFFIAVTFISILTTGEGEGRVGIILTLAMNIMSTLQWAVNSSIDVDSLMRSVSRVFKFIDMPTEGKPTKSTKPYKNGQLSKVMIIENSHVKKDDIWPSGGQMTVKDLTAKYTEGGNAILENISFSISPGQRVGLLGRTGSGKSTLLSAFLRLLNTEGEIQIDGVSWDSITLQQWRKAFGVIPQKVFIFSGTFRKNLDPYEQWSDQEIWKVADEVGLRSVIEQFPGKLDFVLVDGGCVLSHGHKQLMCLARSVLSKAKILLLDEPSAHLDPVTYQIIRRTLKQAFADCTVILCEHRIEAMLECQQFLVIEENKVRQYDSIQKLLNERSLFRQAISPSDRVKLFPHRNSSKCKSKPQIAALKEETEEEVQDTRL
Test: Cell Surface Expression-Horse Radish Peroxidase (CSE-HRP) Assay;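 on Maximum % activity (without co-corrector): percent of the 2 µM on-plate positive control corrector response above DMSO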
Type: cell-based
Settings: test compound without co-corrector; maximum at any tested concentration, normalized to on-plate positive control; read-out: Maximum % activity (without co-corrector)
Examples of compounds with documented Emax follow.

* Cc1cc(CN[C@H]2[C@H](C(C)(C)C)[C@@H](C(=O)O)N(C(=O)C3CCCCC3)[C@H]2c2ccccc2)cc(C)c1OC(F)F | < 100%
* COc1ccc(C2(C(F)(F)F)CC2)cc1CN[C@H]1[C@H](C(C)(C)C)[C@@H](C(=O)O)N(C(=O)C2CCCCC2)[C@H]1c1ccccc1F | > 200%
* CCc1c(C(=O)N2[C@H](C(=O)O)[C@@H](C(C)(C)C)[C@H](NCc3cc(C(C)(C)C)ccc3OC)[C@@H]2c2ccccc2)c(C)nn1-c1ccc(F)cc1 | > 200%
* COC1(CN[C@H]2[C@H](C(C)(C)C)[C@@H](C(=O)O)N(C(=O)C3CCCCC3)[C@H]2c2ccccc2)CCCCC1 | 100 to 200%
* COc1ccc(C(C)(C)C)cc1CN[C@H]1[C@H](C(C)(C)C)[C@@H](C(=O)O)N(C(=O)C(C)Oc2ccccc2F)[C@H]1c1ccccc1 (stereo partly drawn) | > 200%

Could you now consider this next compound?
Task: Which measured Emax value corresponds to COc1ncc(-c2cccnc2C)cc1CN[C@H]1[C@H](C(C)(C)C)[C@@H](C(=O)O)N(C(=O)C2CCCCC2)[C@H]1c1ccccc1 ?
Output: < 100%

###

Target: F508delCFTR (Homo sapiens, UniProt P13569, DEL508-508)
Construct: expressed in transfected cells; host or cells: CFBE41o- human lung-derived epithelial cells (CFBE4lo-F508delCFTR-HRP), doxycycline-inducible
Test: Cell Surface Expression-Horse Radish Peroxidase (CSE-HRP) Assay;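 on Maximum % activity (with co-corrector): co-corrector and positive control are both the same reference corrector at 2 µM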
Type: cell-based
Conditions: with co-corrector (2 μM of 3-[(2R,4R)-4-({[1-(2,2-difluoro-1,3-benzodioxol-5-yl)cyclopropyl]carbonyl}amino)-7-methoxy-3,4-dihydro-2H-chromen-2-yl]benzoic acid); maximum at any tested concentration, normalized to on-plate positive control
reported property: Maximum % activity (with co-corrector)

- COc1nc(C(C)(C)C)ccc1CN[C@H]1[C@H](C(C)(C)C)[C@@H](C(=O)O)N(C(=O)[C@H]2CCCCO2)[C@H]1c1cccnc1N(C)C [II-521]: ++ (≥150 and <350)
- Cc1ccccc1CN[C@@H]1[C@@H](C(C)(C)C)[C@H](C(=O)O)N(C(=O)CC2CCCC2)[C@@H]1c1ccccc1 (racemic) [III-2]: ++ (≥150 and <350)

###

Molecular target: F508delCFTR (Homo sapiens, UniProt P13569, DEL508-508)
Construct: expressed in transfected cells; host or cells: CFBE41o- human lung-derived epithelial cells (CFBE4lo-F508delCFTR-HRP), doxycycline-inducible
Test: Cell Surface Expression-Horse Radish Peroxidase (CSE-HRP) Assay;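 on Maximum % activity (without co-corrector): percent of the 2 µM on-plate positive control corrector response above DMSO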
Assay type: cell-based
Settings: test compound without co-corrector; maximum at any tested concentration, normalized to on-plate positive control; read-out: Maximum % activity (without co-corrector)
reported property: Emax

* CC(C)(C)[C@@H]1[C@@H](NCc2cc(S(C)(=O)=O)ccc2O)[C@@H](c2ccccc2)N(C(=O)C2CCCCC2)[C@H]1C(=O)O (racemic) | < 100%
* COc1ccc(C2CCOCC2)cc1CN[C@H]1[C@H](C(C)(C)C)[C@@H](C(=O)O)N(C(=O)C2CCCCC2)[C@H]1c1ccccc1 | 100 to 200%

--- query ---
Task: What does the data say about its Emax? Entry: COc1ccc(C(C)(C)C)cc1CN[C@H]1[C@H](C(C)(C)C)[C@@H](C(=O)O)N(C(=O)C2CC=CC2)[C@H]1c1ccccc1
Output: > 200%

###

Target: F508delCFTR (Homo sapiens, UniProt P13569, DEL508-508)
Construct: expressed in transfected cells; host or cells: CFBE41o- human lung-derived epithelial cells (CFBE4lo-F508delCFTR-HRP), doxycycline-inducible
Experiment: Cell Surface Expression-Horse Radish Peroxidase (CSE-HRP) Assay;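 on Maximum % activity (with co-corrector): co-corrector and positive control are both the same reference corrector at 2 µM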
Format: cell-based
Conditions: with co-corrector (2 μM of 3-[(2R,4R)-4-({[1-(2,2-difluoro-1,3-benzodioxol-5-yl)cyclopropyl]carbonyl}amino)-7-methoxy-3,4-dihydro-2H-chromen-2-yl]benzoic acid); maximum at any tested concentration, normalized to on-plate positive control
reported property: Maximum % activity (with co-corrector)

- COc1ccc(C(C)(C)C)cc1CN[C@H]1[C@H](C(C)(C)C)[C@@H](C(=O)O)N(C(=O)c2ccc(OC(F)(F)F)cc2)[C@H]1c1cccnc1N(C)C: +++ (≥350)
- COCCS(=O)(=O)NC(=O)[C@H]1[C@H](C(C)(C)C)[C@@H](Nc2cc(C(F)(F)F)cc(C)n2)[C@@H](c2ccccc2)N1C(=O)C1CCCCC1 (racemic): ++ (≥150 and <350)
- COc1cnc(C2CC3CCC2C3)cc1CN[C@H]1[C@H](C(C)(C)C)[C@@H](C(=O)O)N(C(=O)C2CCCCC2)[C@H]1c1ccccc1 (some centres unmarked): +++ (≥350)
- C/C=C/CC(C/C=C/C)C(=O)N1[C@H](C(=O)O)[C@@H](C(C)(C)C)[C@H](NCc2cc(C(C)(C)C)ccc2OC)[C@@H]1c1ccccc1: +++ (≥350)
- COc1ccc(C(C)(C)C)cc1CN[C@H]1[C@H](C(C)(C)C)[C@@H](C(=O)O)N(C(=O)[C@@H]2CCC[C@@](C)(O)C2)[C@H]1c1ccccc1: +++ (≥350)
- COc1nc(C(C)(C)C)ccc1CN[C@H]1[C@H](C(C)(C)C)[C@@H](C(=O)O)N(C(=O)C2Cc3ccccc3O2)[C@H]1c1ccccc1 (single isomer, unassigned): ++ (≥150 and <350)
- CCCOC(=O)N1[C@H](C(=O)O)[C@@H](C(C)(C)C)[C@H](NCc2cc(C(C)(C)C)ccc2OC)[C@@H]1c1ccccc1: +++ (≥350)
- COc1ccc(C(C)(C)C)cc1CN[C@H]1[C@H](C(C)(C)C)[C@@H](C(=O)O)N(C(=O)c2ccc(OC3CCOCC3)cc2)[C@H]1c1cccnc1N(C)C: +++ (≥350)
- COc1ccc(C(C)(C)C)cc1CN[C@H]1[C@H](C(C)(C)C)[C@@H](C(=O)O)N(C(=O)C2(c3ccccc3)COc3ccccc32)[C@H]1c1ccccc1 (some centres unmarked): +++ (≥350)
- COc1ccc(C(C)(C)C)cc1CN[C@H]1[C@H](C(C)(C)C)[C@@H](C(=O)O)N(C(=O)C2CCc3cccc(OC)c3C2)[C@H]1c1ccccc1 (some centres unmarked): +++ (≥350)

Shift focus to the following entry.
Task: Query the reported Maximum % activity (with co-corrector) for F508delCFTR (Homo sapiens, UniProt P13569, DEL508-508); item: CC(C)(C)[C@@H]1[C@@H](NCc2cc(C(F)(F)F)ccc2OCCOC(F)(F)F)[C@@H](c2ccccc2)N(C(=O)C2CCCCC2)[C@H]1C(=O)O (racemic)
Output: ++ (≥150 and <350)

###

The entries below come with measured EC50 values attached.
Molecular target: F508delCFTR (Homo sapiens, UniProt P13569, DEL508-508)
Construct: expressed in transfected cells; host or cells: CFBE41o- human lung-derived epithelial cells (CFBE4lo-F508delCFTR-HRP), doxycycline-inducible
Assay: Cell Surface Expression-Horse Radish Peroxidase (CSE-HRP) Assay
Assay type: cell-based
Conditions: CSE-HRP; test compound without co-corrector; read-out: EC50 (without co-corrector)

// worked examples, EC50 included
* COc1ccc(C(C)(C)C)cc1CN[C@H]1[C@H](C(C)(C)C)[C@@H](C(=O)O)N(C(=O)c2cccc3c2OCC3)[C@H]1c1ccccc1 [II-222] | 1 to 10 µM
* COc1ccc(C(F)(F)F)cc1CN[C@H]1[C@H](C(C)(C)C)[C@@H](C(=O)O)N(C(=O)C2CCCC(F)(F)C2)[C@H]1c1cccnc1OC (relative stereo) [Example I-256] | 1 to 10 µM
* COc1ccc(Cl)cc1CN[C@@H]1[C@@H](C(C)(C)C)[C@H](C(=O)O)N(C(=O)C2CCOC(C)(C)C2)[C@@H]1c1ccccc1N(C)C (mixture of isomers) [II-25] | 1 to 10 µM
* COc1ccc(C(F)(F)F)cc1CN[C@@H]1[C@@H](C(C)(C)C)[C@H](C(=O)O)N(C(=O)[C@@H]2CCCO[C@@H]2C)[C@@H]1c1ccccc1 (racemic) [II-34] | 1 to 10 µM
* COc1ccccc1[C@@H]1[C@H](NCc2cc(C(F)(F)F)cnc2Cl)[C@@H](C(C)(C)C)[C@H](C(=O)O)N1C(=O)C1CCCCC1 (racemic) [II-16] | 1 to 10 µM

Kindly consider the entry below.
Task: Can you share its EC50? I mean this molecule: COc1ccc(C(C)(C)C)cc1CN[C@H]1[C@H](C(C)(C)C)[C@@H](C(=O)O)N(C(=O)C2CCC2)[C@H]1c1ccccc1 [II-313]
Output: 1 to 10 µM
